# Assay: NCI Yeast Anticancer Drug Screen. Data for the mlh1 rad18 strain (AID 175)
# Particulars: S. cerevisiae mlh1 rad18 strain growth inhibition; at 5.0 µM (retest, dose inferred, filed as 0.5)
This is part of a sample that, as a whole, favours compounds with a hit. Of some 79,000 tested, about 15% had one in any assay. Activity calls are given as the source filed them. Rule as the data show it: active = growth inhibition above about 70%; inactive = the rest.
Lab note: assign the record to one of active, inactive

Sample answers from the record:
O=C1CSC(c2ccc(Cl)cc2)N1c1ccc(-c2ccc(-n3c(-c4ccccc4)nc4ccccc4c3=O)cc2)cc1 (stereo not given) = inactive
O=C(/C=C/c1ccccc1)CCN1CCOCC1 = inactive
CC(=O)N(C)NC(=O)c1ccccc1 = inactive
CC1=C/C(=C\C=C2/N(C)c3c(C)cccc3C2(C)C)C(=O)c2ncccc21 = inactive
CCOC(=O)CN1CCC(C(=O)CC2(O)C3(Cl)C4(Cl)C5(Cl)C(Cl)(Cl)C6(Cl)C4(Cl)C2(Cl)C6(Cl)C53Cl)CC1 (stereo not given) = inactive

GET /call?item= `COc1ccc2c(c1)n([O-])c1cc(C#N)ccc1[n+]2=O` returns the recorded outcome of this test. active

Recorded test outcome, item `c1ccc(CSc2nnc(SCc3ccccc3)c3[nH]cnc23)cc1` inactive

Fill in: this test's call for `OCC1CCCCCCCCCCC1` is ___ inactive

Record lookup: outcome of this test for `CC(=O)OC[C@@]1(C)[C@@H]2CC[C@]3(C)[C@H](C(=O)C=C4[C@@H]5CC(C)(C)CC[C@]5(C(=O)O)CC[C@]43C)[C@@]2(C)CC[C@@H]1OC(C)=O` ? inactive

What call does the record list for CC(C)OC(=O)C1C=CCc2c(O)ccc(O)c21 (stereo not given) ? inactive

----------
# Assay: NCI Yeast Anticancer Drug Screen. Data for the sgs1 mgt1 strain (AID 161);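 also: 0% = growth of cultures given vehicle only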
# Particulars: S. cerevisiae sgs1 mgt1 strain, at 50.0 µM (retest, dose inferred, filed as 5.0), stronger effect = higher value
About 79,000 compounds went through this panel and 15% of them were active in at least one assay; those are over-represented in the sample as a whole.
In this section, each of the molecules is paired with its reported growth inhibition.
Dear colleague, please return just the value in %, with no unit written.

Study these solved cases before continuing.
Clc1ccc(/C=N\Nc2ccccc2)c(Cl)c1 = 98
OCC1CCCCCCCCCCC1 = 22

We now examine a further molecule.
Entry under review: `O=C(c1ccccc1)c1ccc(Br)cc1O` . Reported growth inhibition? 33

----------
# Assay: NCI Yeast Anticancer Drug Screen. Data for the mec2-1 strain (AID 157)
# Particulars: S. cerevisiae mec2-1 strain, at 50.0 µM (retest, dose inferred, filed as 5.0), stronger effect = higher value
This is part of a sample that, as a whole, favours compounds with a hit. Of some 79,000 tested, about 15% had one in any assay.
Quantity: growth inhibition (%)
Only the number, expressed in %, is required.

Check out these entries, answers already filled in.
OC(CC(O)(C(F)(F)Cl)C(F)(F)Cl)c1ccccc1 (stereo not given) = 62
CN1CCN=C1c1ccc(NC(=O)Nc2ccc(NC(=O)Nc3ccc(C4=NCCN4C)cc3)cc2)cc1 = 85
O=[N+]([O-])c1cc(Br)cc(Br)c1O = 45
CN(C)C(=S)N/N=C/c1ccccn1 = 98

Would you kindly look at the next entry?
Query: growth inhibition; subject: `O=C(CCl)N1CCN(C(c2ccccc2)c2ccccc2)CC1` 95

----------
# Assay: NCI Yeast Anticancer Drug Screen. Data for the bub3 strain (AID 167)
# Particulars: S. cerevisiae bub3 mutant strain, at 50.0 µM, stronger effect = higher value
This is part of a sample that, as a whole, favours compounds with a hit. Of some 79,000 tested, about 15% had one in any assay. Active and inactive are the calls of the source. Rule as the data show it: active = growth inhibition above about 70%; inactive = the rest.
Reported growth inhibition values follow for various molecules

Cc1cc2nc3c(C)c4ccccc4c(C)n3c2cc1C = 86.4% (active)

Fill in: growth inhibition of `Ic1ccc2c(c1)N(c1ccccc1)c1cc(N=c3ccc4nc5ccc(I)cc5n(-c5ccccc5)c-4c3)ccc1N2` is ___ 97.3% (active)

Quick check: growth inhibition of `c1ccc(COc2ccc(C[P+](c3ccccc3)(c3ccccc3)c3ccccc3)cc2)cc1` ? 99.5% (active)

Query: growth inhibition; subject: `CCCCCCCCCCCCNCc1ccc(O)c(OC)c1` 97.8% (active)

Which measured growth inhibition value corresponds to `Oc1ccc(O)c(C2CCCCC2)c1` ? 89% (active)

Reported growth inhibition for CC(C)CC(N)C(=O)NNc1ccccc1 (configuration not stated) : what is it? 97.5% (active)

----------
In this section we review reported growth inhibition values for a set of molecules.
# Assay: NCI Yeast Anticancer Drug Screen. Data for the cln2 rad14 strain (AID 165);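 also: 0% = growth equal to vehicle treated cultures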
# Particulars: S. cerevisiae cln2 rad14 strain, at 50.0 µM, stronger effect = higher value
About 79,000 compounds went through this panel and 15% of them were active in at least one assay; those are over-represented in the sample as a whole.
Express it in %; write the number only.

CC1=CC(C)(C)Nc2cc(N)ccc21 = -35.5
CCN(CC)COC(=S)S = 44
FC(F)(F)c1cccc(COCCN2CCN(Cc3cccc(C(F)(F)F)c3)CC2)c1 = 96.5
NC(=O)NOCC1NC(=O)NC1=O (stereo not drawn) = -11.1
O=C(O)CN(CCN1CC(=O)OC(=O)C1)CCN1CC(=O)OC(=O)C1 = 70.5

Need growth inhibition of Cc1cccc2c1C1c3c(C)cccc3C(O)CC1CC2O (stereo not drawn) , thanks. 30.1

Requested read-out: growth inhibition. Entry: `CC(=O)OCC(C(N)=O)(c1ccccc1)c1ccccc1` 91.5

Which growth inhibition value belongs to `O=Nc1ccc(O)c(/C=N/O)c1` ? 83.8

Please look up its growth inhibition: `COC(=O)/C(C#N)=C/c1cc(OC)c(O)cc1Br` 43.8

Item `CCC(=O)[O][Bi]([c]1ccccc1)[c]1ccccc1` has what recorded growth inhibition? 90

For the molecule shown here, `O=C(CCl)N1CCN(C(c2ccccc2)c2ccccc2)CC1` , give the reported growth inhibition. 81.2

Look up growth inhibition for this molecule: `C/C(=N/NC(=S)N(C)C)c1ccccc1O` 77.9

Find the recorded growth inhibition belonging to `Clc1ccc(N2CCN(CCCN3CCN(c4ccc(Cl)cc4)CC3)CC2)cc1` and report it. 6.25

----------
# Assay: NCI Yeast Anticancer Drug Screen. Data for the cln2 rad14 strain (AID 165);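 also: 0% = growth equal to vehicle treated cultures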
# Particulars: S. cerevisiae cln2 rad14 strain, at 5.0 µM (retest, dose inferred, filed as 0.5), stronger effect = higher value
# Protocol: Growth inhibition of yeast strains with defined genetic alterations is measured as a screen for potential anti-cancer activity. Selected strains with alterations in DNA damage repair or cell cycle control were exposed to compounds and growth inhibition was measured relative to vehicle treated controls. The strain used in this assay is cln2 rad14
This is part of a sample that, as a whole, favours compounds with a hit. Of some 79,000 tested, about 15% had one in any assay.
Quantity: growth inhibition (%)
Only the number, expressed in %, is required.

Some compounds with known growth inhibition results, for comparison:
O=C(c1ccccc1)c1ccc2c(c1Cl)C(=O)c1ccccc1C2=O = 14
CCCCCCCCCCCCCCNC(=O)CCC(NC(=O)c1ccc(N(C)Cc2cnc3nc(N)nc(N)c3n2)cc1)C(=O)NCCCCCCCCCCCCCC (stereo unspecified) = 3

Need growth inhibition of `C/C(=N\NC(=S)N1CCN(c2cnccn2)CC1)c1ccccn1` , thanks. 10

Request the reported growth inhibition associated with `S=C(Nc1ccc(Cl)c(Cl)c1)SC1CCCCC1` -1

What growth inhibition value was documented for this compound, `O=[N+]([O-])c1ccc(CO)o1` ? 3

Param item = `COc1cc(CC#N)c(NC(C)=O)cc1OC` ; retrieve measured growth inhibition. 1

----------
The entries below come with measured growth inhibition values attached.
# Assay: NCI Yeast Anticancer Drug Screen. Data for the sgs1 mgt1 strain (AID 161);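 also: 0% = growth of cultures given vehicle only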
# Particulars: S. cerevisiae sgs1 mgt1 strain, at 50.0 µM, stronger effect = higher value
About 79,000 compounds went through this panel and 15% of them were active in at least one assay; those are over-represented in the sample as a whole.
I only need the number, in %, no unit after it.

Nc1ncnc2c1ncn2C1OCC(OCc2ccccc2)C(OCc2ccccc2)C1OCc1ccccc1 (stereo not drawn) = 99.2
O=C1CSC(Cc2nc3ccccc3[nH]2)=N1 = 73
CN1C=COC1N=C1CCCCC1 (stereo not drawn) = -5.2
Oc1ccc(Cc2cc(Cl)cc(Cl)c2O)cc1Cl = 99.4
OC(C/C(=N\N=C(/CC(O)(C(F)(F)F)C(F)(F)F)c1ccccc1)c1ccccc1)(C(F)(F)F)C(F)(F)F = 50.9

Fill blank: measured growth inhibition of the compound `CCCCCCCCCCC(NC(C)=O)(C(=O)OCC)C(=O)OCC` is ____. 67.3

----------
# Assay: NCI Yeast Anticancer Drug Screen. Data for the bub3 strain (AID 167)
# Particulars: S. cerevisiae bub3 mutant strain, at 50.0 µM
This is part of a sample that, as a whole, favours compounds with a hit. Of some 79,000 tested, about 15% had one in any assay. The source made the active and inactive calls. Cut-off read from the data, not from the text of the source: active = growth inhibition above about 70%; inactive = the rest.
Field 'call' accepts active, inactive

CCc1cccc(C(C)(C)C)c1NC(=S)N/C=C(\C#N)C(=O)c1ccc2ccccc2c1 = inactive
N=C(N)SCc1ccc(Br)cc1 = inactive
OC(Cn1cncn1)(Cn1cncn1)c1ccc(Cl)cc1Cl = inactive

What call does the record list for `CCc1n[nH]c(CC)c1CCCCCCOc1ccc(OC)cc1Cl` ? active

Outcome logged for `COc1cnc2cc3c4c(cccc4c2c1)NC3=O` in this assay: active

Per the records of this test, what outcome belongs to `O=C(CBr)N1c2ccccc2S(=O)(=O)c2ccc3ccccc3c21` ? active

Hi team, can someone confirm the assay call for `CCOCCOc1ccc(OCCOCC)cc1` ? inactive

What outcome does the record of this test show for `Cc1ccccc1NC(=O)Cc1csc(N=Nc2c(O)[nH]c3ccccc23)n1` ? inactive

I would be grateful if you could indicate the recorded call for `Cc1ccc([N+](=O)[O-])c2c(NCCCN(C)C)c3ccccc3nc12` . active

In this assay, the call recorded for `Cc1cc(Sc2ccccc2)c2c(C)ccc(C(C)C)cc1-2` was what? inactive

Which outcome did this test record for the compound `Cc1ccc(C)c(NC(=O)CCC(=O)CC(=O)c2ccncc2)c1` ? inactive

Which outcome did this test record for the compound CC(CN(C)C)C(=O)/C=C/c1c(Cl)cccc1Cl (centres undefined) ? active

Per the records of this test, what outcome belongs to `O=C(NCc1ccc(F)cc1)c1ccc(C(=O)NCc2ccc(F)cc2)cc1` ? inactive
